- Test system: VA-ES-BJ
- experiment-description: relative viability vs DMSO control (72 h) (fraction); higher = more viable cells
- details: 1.111 µM
Record form. Attribute: relative viability. Fill in for each entry.
One number for each entry.

Check out these entries, answers already filled in.
N#CC1(c2ccc(NC(=O)c3cccnc3NCc3ccncc3)cc2)CCCC1 [Apatinib]; 1.11
COC(=O)N[C@@H](C)CNc1nccc(-c2cn(C(C)C)nc2-c2cc(Cl)cc(NS(C)(=O)=O)c2F)n1 [Encorafenib]; 0.852
CO[C@H]1C[C@@H]2CC[C@@H](C)[C@@](O)(O2)C(=O)C(=O)N2CCCC[C@H]2C(=O)O[C@H]([C@H](C)C[C@@H]2CC[C@@H](OCCO)[C@H](OC)C2)CC(=O)[C@H](C)/C=C(\C)[C@@H](O)[C@@H](OC)C(=O)[C@H](C)C[C@H](C)/C=C/C=C/C=C/1C [Certican]; 0.468

Continue with the next compound.
query: Consider the compound shown here: C[C@]12O[C@H](C[C@]1(O)CO)n1c3ccccc3c3c4c(c5c6ccccc6n2c5c31)CNC4=O [Lestaurtinib] What is its recorded relative viability?
result: 0.42

* * *

- Test system: KHOS-240S
- experiment-description: relative viability vs DMSO control (72 h) (fraction); higher = more viable cells
- details: 0.1235 µM
outcome-measure: relative viability
Answers are plain numbers.

Study these solved cases before continuing.
N#CC1(c2ccc(NC(=O)c3cccnc3NCc3ccncc3)cc2)CCCC1; 1.03
O=C(Nc1nc2cccc(-c3ccc(CN4CCS(=O)(=O)CC4)cc3)n2n1)C1CC1; 1.03

query: Lab note: need relative viability with KHOS-240S for entry `CC(C)(O)CNc1nc(Nc2ccnc(C(F)(F)F)c2)nc(-c2cccc(C(F)(F)F)n2)n1` , please look it up.
result: 1.09

* * *

- Tested on: SYO-1
- experiment-description: relative viability vs DMSO control (72 h) (fraction); higher = more viable cells
- details: 0.1235 µM
Would you kindly list relative viability for each of these compounds?
One number for each entry.

Worked cases, answers included:
CNC(=O)c1ccccc1Sc1ccc2c(/C=C/c3ccccn3)n[nH]c2c1; 0.662
Cc1cc2c(F)c(Oc3ncnn4cc(OC[C@@H](C)O)c(C)c34)ccc2[nH]1; 0.921
COc1cc(CCc2cc(NC(=O)c3ccc(N4CC(C)NC(C)C4)cc3)n[nH]2)cc(OC)c1 (stereo not drawn); 0.588
COC(=O)[C@@]1(O)C[C@H]2O[C@]1(C)n1c3ccccc3c3c4c(c5c6ccccc6n2c5c31)C(=O)NC4 [K-252a]; 0.66

Parameters: items (list). Returns: relative viability for each item.
1. CCN1C(=O)N(c2c(F)c(OC)cc(OC)c2F)Cc2cnc3[nH]c(CN4CCOCC4)cc3c21
2. CC(C)NC[C@@H](C(=O)N1CCN(c2ncnc3c2[C@H](C)C[C@H]3O)CC1)c1ccc(Cl)cc1

result:
1: 0.733; 2: 0.719

Your task in this section: give relative viability for each listed record.
1. Cc1cccc(-c2nn3c(c2-c2ccnc4ccc(C(N)=O)cc24)CCC3)n1
2. O=C1NC(=O)[C@@H](c2cn3c4c(cccc24)CCC3)[C@@H]1c1c[nH]c2ccccc12 [Tivantinib]

result:
1: 0.783; 2: 0.861

* * *

- System: SW982
- experiment-description: relative viability vs DMSO control (72 h) (fraction); higher = more viable cells
- details: 0.00457 µM
outcome-measure: relative viability
One number for each entry.

CNC(=O)c1ccccc1Sc1ccc2c(/C=C/c3ccccn3)n[nH]c2c1; 1.02
COC(=O)[C@@]1(O)C[C@H]2O[C@]1(C)n1c3ccccc3c3c4c(c5c6ccccc6n2c5c31)C(=O)NC4 [K-252a]; 1.07
CN1CCN(c2ccc(C(=O)Nc3n[nH]c4ccc(Cc5cc(F)cc(F)c5)cc34)c(NC3CCOCC3)c2)CC1; 1.07
O=C(Nc1ccc(OC(F)(F)Cl)cc1)c1cnc(N2CC[C@@H](O)C2)c(-c2cc[nH]n2)c1; 0.975

query: Using the record for `O=C(Nc1nc2cccc(-c3ccc(CN4CCS(=O)(=O)CC4)cc3)n2n1)C1CC1` , report its relative viability.
result: 1.08
